Recorded values, source paper PMC4788533.

Test: Selumetinib plasma pharmacokinetics
Assay type: in vivo, human
Conditions: human, plasma, oral, 50 mg, T ½, day 1 of cycle 1, dose level 1 (selumetinib 50mg), N=6, mean ± SD
measured_property: half-life (h)
Numbers only; they are read as h.

Find the recorded half-life belonging to `Cn1cnc2c(F)c(Nc3ccc(Br)cc3Cl)c(C(=O)NOCCO)cc21` and report it.
2.28

* * *

Assay: Selumetinib plasma pharmacokinetics
Type: in vivo, human
Conditions: human, plasma, oral, 50 mg, Cmax, day 1 of cycle 1, dose level 1 (selumetinib 50mg), N=6, geometric mean (CV)
measured_property: Cmax (ng/mL)
Value expressed in ng/mL; do not type the unit.

What does the record list as Cmax for `Cn1cnc2c(F)c(Nc3ccc(Br)cc3Cl)c(C(=O)NOCCO)cc21` ?
1320

* * *

Assay: Selumetinib plasma pharmacokinetics
Type: in vivo, human
Settings: human, plasma, oral, 50 mg, T ½, day 1 of cycle 1, dose level 2 (selumetinib 50mg), N=4, mean ± SD
measured_property: half-life (h)
Express it in h; write the number only.

# input molecule: `Cn1cnc2c(F)c(Nc3ccc(Br)cc3Cl)c(C(=O)NOCCO)cc21` ; wanted: its half-life
2.31

* * *

Experiment: Selumetinib plasma pharmacokinetics
Type: in vivo, human
Details: human, plasma, oral, 50 mg, AUC 0-∞, day 1 of cycle 1, dose level 2 (selumetinib 50mg), N=4, geometric mean (CV)
measured_property: AUC(0-inf) (ng·h/mL)
Provide the reading as a plain figure in ng·h/mL.

Query (compound): `Cn1cnc2c(F)c(Nc3ccc(Br)cc3Cl)c(C(=O)NOCCO)cc21` ; field requested: AUC(0-inf)
3610

* * *

Test: Selumetinib plasma pharmacokinetics
Assay type: in vivo, human
Details: human, plasma, oral, 50 mg, Tmax, day 1 of cycle 1, dose level 2 (selumetinib 50mg), N=4, mean ± SD
measured_property: Tmax (h)
Give just the numeric value; h need not be written.

For the compound `Cn1cnc2c(F)c(Nc3ccc(Br)cc3Cl)c(C(=O)NOCCO)cc21` , what Tmax is on record?
1.92

* * *

Test: Selumetinib plasma pharmacokinetics
Assay type: in vivo, human
Conditions: human, plasma, oral
measured_property: AUC

Can you look up the measured AUC of Cn1cnc2c(F)c(Nc3ccc(Br)cc3Cl)c(C(=O)NOCCO)cc21 [selumetinib] for me?
3210 to 5200 ng·h/mL

* * *

Assay: Selumetinib plasma pharmacokinetics
Type: in vivo, human
Conditions: human, plasma, oral, 50 mg, Tmax, day 1 of cycle 1, dose level 1 (selumetinib 50mg), N=6, mean ± SD
measured_property: Tmax (h)
Answer format: numeric, h implied, no suffix.

I have this molecule here, `Cn1cnc2c(F)c(Nc3ccc(Br)cc3Cl)c(C(=O)NOCCO)cc21` , and I need its recorded Tmax.
1.13
